The reported measurements were obtained from the supplement of paper PMC7125110.

B1: glmS ribozyme (parent)
chain: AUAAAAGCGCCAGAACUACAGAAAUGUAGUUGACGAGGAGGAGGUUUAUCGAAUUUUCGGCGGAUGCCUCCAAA

Variants of: B1
Assay remarks: self-cleavage kobs at 2500 uM GlcN6P; higher = faster cleavage; RNA array
Cond: with glucosamine-6-phosphate
This sample holds only a part of the variants without activity.
Measured endpoint: self-cleavage kobs at 2500 uM GlcN6P (s⁻¹)

INSERT INTO assay_data (mutation_annotation, value_comparator, endpoint_result) VALUES
  ('C10U A12U G44A U49C C70G', '<', '1e-05'),
  ('C8A G38U', '<', '1e-05'),
  ('A12U A33G G38U G44U G59A', '<', '1e-05'),
  ('A6U G29A G37A G38A A42C G43U G62U C70U', '<', '1e-05'),
  ('G29A U57G C70G', '=', 0.000123),
  ('C11U A33U G59A', '=', 0.000169),
  ('A12G C67G', '=', 0.000182),
  ('G7A G38C C58A', '<', '1e-05'),
  ('C61U U69A', '=', '6.76e-05'),
  ('A33C A39U', '=', 0.000146),
  ('G41A U45C', '=', 0.000154),
  ('A15C A36C A48U', '<', '1e-05'),
  ('A6C U57C', '<', '1e-05'),
  ('U55G U69C', '=', 0.000289),
  ('A39G A64G', '=', 0.0328),
  ('C34U C50G C68A', '=', '9.73e-05'),
  ('C11U U45G', '=', 0.000172),
  ('C34U G60A C68U', '<', '1e-05'),
  ('A39U C67A C68U', '=', 0.000112),
  ('A12C A14G C34G G38U U49G A64G', '<', '1e-05'),
  ('A39U U49G', '=', 0.000231),
  ('U45G U46C C61A G66U', '<', '1e-05');
